Where these numbers come from: the RepoRT retention time repository (doi:10.1007/s00216-021-03828-0)

# ASSAY_METHOD_TEXT: RP, Merck Supelco Ascentis Express C18, 100 × 2.1 mm, 2 µm, 40 °C, 0.25 mL/min, estimated dead time 0.88 min; A: water + 0.1% formic acid, pH 3; B: acetonitrile + 0.1% formic acid, pH 3; gradient (min/%B) 0/5 2/5 17/99.9 20/99.9
# TEST_CONTEXT: stereoisomer not certain
MEASURED_QUANTITY: LC retention time (min)

Below, 10 compounds whose answers are already recorded.
O=c1[nH]c(=O)c2ncn(C3OC(CO)C(O)C3O)c2[nH]1 (configuration not stated) ... 1.29
Cc1cn(C2CC(O)C(CO)O2)c(=O)[nH]c1=O (configuration not stated) ... 1.64
CC(C)=CCNc1ncnc2nc[nH]c12 ... 5.08
O=C(O)Cc1ccccc1O [2-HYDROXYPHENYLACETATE] ... 4.19
CC(C(=O)O)C(=O)O [METHYLMALONATE] ... 1.37
O=C(O)/C=C/c1ccccc1 [TRANS-CINNAMATE] ... 7.67
O=C(O)c1ccc(=O)[nH]c1 [6-HYDROXYNICOTINATE] ... 1.26
Cc1cc2nc3[nH]c(=O)[nH]c(=O)c3nc2cc1C ... 6.4
CC12CCC(=O)C=C1CCC1C2C(O)CC2(C)C1CCC2(O)C(=O)CO (configuration not stated) ... 7.53
NC(=O)CCCCC1CCSS1 (configuration not stated) [LIPOAMIDE] ... 7.07

(I) O=C([O-])c1c[nH]c(=O)[nH]c1=O [URACIL 5-CARBOXYLATE]
(II) Cn1c(=O)c2c(ncn2C)n(C)c1=O
Task item: Out of I and II , name the one with the higher LC retention time. Record your answer as the label of the chosen record.
Reply: II
(II: 4.48 min, I: 1.07 min)

(1) CC(C)=CCCC(C)C1CCC2C3CC=C4CC(O)CCC4(C)C3CCC12C (configuration not stated)
(2) CC(=O)NC(Cc1ccccc1)C(=O)O (configuration not stated)
(3) CCC(C)C(N)C(=O)O (configuration not stated)
(4) CCCCCCCC(=O)O [CAPRYLATE]
Task item: Sort the compounds on LC retention time; start with the lowest figure. Answer format: list of labels, ordered as asked.
Reply: 3, 2, 4, 1
(3: 1.14 min, 2: 5.77 min, 4: 10 min, 1: 15.8 min)

(A) O=C(O)CCCCC1SCC2NC(=O)NC21 (configuration not stated)
(B) Cn1cnc2c1c(=O)[nH]c(=O)n2C
(C) CC(O)(CC(=O)O)CC(=O)O [3-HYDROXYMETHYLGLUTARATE]
(D) CC(CCC(=O)NCCS(=O)(=O)O)C1CCC2C3CCC4CC(O)CCC4(C)C3CCC12C (configuration not stated)
Task item: Sort the compounds on LC retention time; start with the lowest figure. Answer format: list of labels, ordered as asked.
Reply: C, B, A, D
(C: 1.26 min, B: 2.12 min, A: 4.96 min, D: 10.5 min)

(1) O=C(O)c1cccc(O)c1 [3-HYDROXYBENZOATE]
(2) CC(=O)NCCCC(=O)O [4-ACETAMIDOBUTANOATE]
Task item: Out of 1 and 2 , name the one with the higher LC retention time. Record your answer as the label of the chosen record.
Reply: 1
(1: 4.72 min, 2: 1.29 min)

(1) N[C@@H](Cc1cc(I)c(O)c(I)c1)C(=O)O
(2) CC(CCC(=O)NCC(=O)O)C1CCC2C3C(O)CC4CC(O)CCC4(C)C3CC(O)C12C (configuration not stated) [GLYCOCHOLATE]
Task item: Out of 1 and 2 , name the one with the higher LC retention time. Record your answer as the label of the chosen record.
Reply: 2
(2: 8.75 min, 1: 4.89 min)
